Target: Toll-like receptor 7 (Homo sapiens)
Sequence (Q9NYK1 whole entry): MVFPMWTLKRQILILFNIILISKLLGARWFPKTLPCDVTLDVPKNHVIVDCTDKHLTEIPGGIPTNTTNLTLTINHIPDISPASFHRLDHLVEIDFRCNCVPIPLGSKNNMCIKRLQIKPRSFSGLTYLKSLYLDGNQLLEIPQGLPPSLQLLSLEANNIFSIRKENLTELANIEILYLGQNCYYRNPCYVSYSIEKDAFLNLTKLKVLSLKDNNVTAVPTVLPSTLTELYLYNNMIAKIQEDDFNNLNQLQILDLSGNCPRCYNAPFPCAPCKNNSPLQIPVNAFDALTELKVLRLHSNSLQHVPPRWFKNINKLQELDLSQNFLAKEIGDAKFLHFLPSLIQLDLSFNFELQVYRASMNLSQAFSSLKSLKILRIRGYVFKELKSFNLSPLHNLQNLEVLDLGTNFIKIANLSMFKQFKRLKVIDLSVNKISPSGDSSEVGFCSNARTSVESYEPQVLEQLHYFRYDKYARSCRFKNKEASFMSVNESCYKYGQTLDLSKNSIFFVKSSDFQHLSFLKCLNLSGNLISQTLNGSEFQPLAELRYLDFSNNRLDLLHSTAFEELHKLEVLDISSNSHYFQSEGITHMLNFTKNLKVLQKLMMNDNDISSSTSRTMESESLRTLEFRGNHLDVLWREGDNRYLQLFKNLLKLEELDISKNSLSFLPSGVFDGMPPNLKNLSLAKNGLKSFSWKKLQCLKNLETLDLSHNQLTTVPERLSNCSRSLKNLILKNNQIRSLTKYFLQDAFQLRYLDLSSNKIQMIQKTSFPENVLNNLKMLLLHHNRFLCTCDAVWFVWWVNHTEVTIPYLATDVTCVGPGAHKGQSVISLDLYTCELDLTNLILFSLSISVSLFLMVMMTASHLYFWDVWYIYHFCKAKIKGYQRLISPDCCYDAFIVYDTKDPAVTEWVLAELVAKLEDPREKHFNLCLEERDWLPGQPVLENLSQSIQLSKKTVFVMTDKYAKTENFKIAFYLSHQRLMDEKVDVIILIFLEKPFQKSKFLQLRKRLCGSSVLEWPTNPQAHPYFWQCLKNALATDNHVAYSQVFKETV
Experiment: Agonist activity at human TLR7 transfected in HEK cells assessed as NFkappaB induction after 24 hrs by specific secreted alkaline phosphatase gene assay
MEASUREMENT_TYPE: EC50 (µM)

* CCCCc1nc2c(N)nc3cc(C(=O)OC)ccc3c2n1CC(C)(C)O | 1.2
* CC(C)(O)Cn1cnc2c(N)nc3ccccc3c21 | 95
* CC(C)Cn1cnc2c(N)nc3ccccc3c21 | 12.1
